solubility at 90 min for assorted molecules
testMethodNotes: physchem
assayConditions: pH 4, aqueous buffer, kinetic from dmso stock
readoutType: solubility at 90 min

molecule: C/C(=N\OCCN1CCOCC1)[C@H]1CC[C@H]2[C@@H]3CCC4=CC(=O)CC[C@]4(C)[C@H]3CC[C@]12C
reportedValue: > 450 µM
--
molecule: C/C(=N\OC(=O)c1cccnc1)[C@H]1CC[C@H]2[C@@H]3CCC4=CC(=O)CC[C@]4(C)[C@H]3CC[C@]12C
reportedValue: < 35 µM
--
molecule: C/C(=N\OC(=O)c1ccc(CN2CCN(C)CC2)cc1)[C@H]1CC[C@H]2[C@@H]3CCC4=CC(=O)CC[C@]4(C)[C@H]3CC[C@]12C
reportedValue: < 30 µM
--
molecule: CO/N=C(\C)[C@H]1CC[C@H]2[C@@H]3CCC4=CC(=O)CC[C@]4(C)[C@H]3CC[C@]12C
reportedValue: < 25 µM
--
molecule: CC(=O)[C@H]1CC[C@H]2[C@@H]3CCC4=CC(=O)CC[C@]4(C)[C@H]3CC[C@]12C [PROG, Progesterone, reference compound]
reportedValue: < 25 µM
--
molecule: CC(=O)O/N=C(\C)[C@H]1CC[C@H]2[C@@H]3CCC4=CC(=O)CC[C@]4(C)[C@H]3CC[C@]12C
reportedValue: 180 µM
--
molecule: C/C(=N\OC(=O)[C@H]1CCCNC1)[C@H]1CC[C@H]2[C@@H]3CCC4=CC(=O)CC[C@]4(C)[C@H]3CC[C@]12C.Cl
reportedValue: 314 µM

###

testMethodNotes: physchem
assayConditions: phosphate buffer, pH 7

compound: CC(=O)[C@H]1CC[C@H]2[C@@H]3CCC4=CC(=O)CC[C@]4(C)[C@H]3CC[C@]12C [PROG, Progesterone, reference compound]
half-life: > 240 h

###

testMethodNotes: physchem
assayConditions: pH 4, aqueous buffer, kinetic from dmso stock
readoutType: solubility at 90 min (µM)

mol: C/C(=N\OC(=O)CN1CCOCC1)[C@H]1CC[C@H]2[C@@H]3CCC4=CC(=O)CC[C@]4(C)[C@H]3CC[C@]12C
readoutType: solubility at 90 min
reportedValue: 215
//
mol: C/C(=N\OC(=O)C1CCNCC1)[C@H]1CC[C@H]2[C@@H]3CCC4=CC(=O)CC[C@]4(C)[C@H]3CC[C@]12C.Cl
readoutType: solubility at 90 min
reportedValue: 247
//
mol: CC(=O)[C@H]1CC[C@H]2[C@@H]3CCC4=C/C(=N/OC(=O)[C@@H](N)C(C)C)CC[C@]4(C)[C@H]3CC[C@]12C.Cl
readoutType: solubility at 90 min
reportedValue: 322

###

solubility at 90 min for assorted compounds
testMethodNotes: physchem
assayConditions: pH 4, aqueous buffer, kinetic from dmso stock
readoutType: solubility at 90 min (µM)

mol: C/C(=N\OC(=O)CN(C)C)[C@H]1CC[C@H]2[C@@H]3CCC4=CC(=O)CC[C@]4(C)[C@H]3CC[C@]12C
censoringQualifier: =
reportedValue: 449
--
mol: C/C(=N\OC(=O)[C@@H]1CCC[N+]1(C)C)[C@H]1CC[C@H]2[C@@H]3CCC4=CC(=O)CC[C@]4(C)[C@H]3CC[C@]12C.[I-]
censoringQualifier: =
reportedValue: 345
--
mol: C/C(=N\OC(=O)CN1CCN(C)CC1)[C@H]1CC[C@H]2[C@@H]3CCC4=CC(=O)CC[C@]4(C)[C@H]3CC[C@]12C
censoringQualifier: =
reportedValue: 153
--
mol: C/C(=N\OC(=O)[C@@H]1CCCN1)[C@H]1CC[C@H]2[C@@H]3CCC4=CC(=O)CC[C@]4(C)[C@H]3CC[C@]12C.Cl
censoringQualifier: =
reportedValue: 395
--
mol: CC(=O)[C@H]1CC[C@H]2[C@@H]3CCC4=C/C(=N/O)CC[C@]4(C)[C@H]3CC[C@]12C
censoringQualifier: <
reportedValue: 45
--
mol: C/C(=N\OC(=O)C[N+](C)(C)C)[C@H]1CC[C@H]2[C@@H]3CCC4=CC(=O)CC[C@]4(C)[C@H]3CC[C@]12C.[I-]
censoringQualifier: >
reportedValue: 540

###

inhibition at 5 µM for assorted compounds
Tested on: Primary cortical cells
testMethodNotes: Reduction of neuronal cell death after a glutamate challenge (MTT / LDH release)
Format: cell-based
assayConditions: 24 h, read-out: reduction in cell death at a 5 μM dose
readoutType: inhibition at 5 µM (%)

compound: C/C(=N\OC(=O)C1CC[N+](C)(C)CC1)[C@H]1CC[C@H]2[C@@H]3CCC4=CC(=O)CC[C@]4(C)[C@H]3CC[C@]12C.[I-] [Compound 20]
reportedValue: 0
//
compound: CC(=O)[C@H]1CC[C@H]2[C@@H]3CCC4=C/C(=N/O)CC[C@]4(C)[C@H]3CC[C@]12C [Compound 2]
reportedValue: 21
//
compound: C/C(=N\OC(=O)[C@@H]1CCCN1)[C@H]1CC[C@H]2[C@@H]3CCC4=CC(=O)CC[C@]4(C)[C@H]3CC[C@]12C.Cl [Compound 8, Hydrochloride]
reportedValue: 21
//
compound: CC(=O)[C@H]1CC[C@H]2[C@@H]3CCC4=CC(=O)CC[C@]4(C)[C@H]3CC[C@]12C [PROG, Progesterone, reference compound]
reportedValue: 4
//
compound: C/C(=N\OC(=O)C1CCNCC1)[C@H]1CC[C@H]2[C@@H]3CCC4=CC(=O)CC[C@]4(C)[C@H]3CC[C@]12C.Cl [Compound 18, hydrochloride]
reportedValue: 4
//
compound: C/C(=N\OCCN1CCOCC1)[C@H]1CC[C@H]2[C@@H]3CCC4=CC(=O)CC[C@]4(C)[C@H]3CC[C@]12C [Compound 5]
reportedValue: 26
//
compound: CC(=O)[C@H]1CC[C@H]2[C@@H]3CCC4=C/C(=N/OC(=O)[C@@H](N)C(C)C)CC[C@]4(C)[C@H]3CC[C@]12C.Cl [Compound 1, Hydrochloride]
reportedValue: 27
//
compound: C/C(=N\OC(=O)c1ccc[n+](C)c1)[C@H]1CC[C@H]2[C@@H]3CCC4=CC(=O)CC[C@]4(C)[C@H]3CC[C@]12C.[I-] [Compound 15]
reportedValue: 0
//
compound: C/C(=N\OC(=O)c1cccnc1)[C@H]1CC[C@H]2[C@@H]3CCC4=CC(=O)CC[C@]4(C)[C@H]3CC[C@]12C [Compound 14]
reportedValue: 20
//
compound: C/C(=N\OC(=O)[C@@H](N)C(C)C)[C@H]1CC[C@H]2[C@@H]3CCC4=CC(=O)CC[C@]4(C)[C@H]3CC[C@]12C.Cl [Compound 7, hydrochloride]
reportedValue: 24

###

testMethodNotes: physchem
assayConditions: pH 7, aqueous buffer, kinetic from dmso stock
log10 of solubility at 90 min for assorted compounds
readoutType: log10 of solubility at 90 min (log10 of the value in µM)

compound: CC(=O)O/N=C(\C)[C@H]1CC[C@H]2[C@@H]3CCC4=CC(=O)CC[C@]4(C)[C@H]3CC[C@]12C [Compound 6]
readoutType: log10 of solubility at 90 min
reportedValue: 2.00
--
compound: C/C(=N\OC(=O)CN1CCOCC1)[C@H]1CC[C@H]2[C@@H]3CCC4=CC(=O)CC[C@]4(C)[C@H]3CC[C@]12C [Compound 12]
readoutType: log10 of solubility at 90 min
reportedValue: 2.33
--
compound: C/C(=N\OC(=O)[C@@H]1CCC[N+]1(C)C)[C@H]1CC[C@H]2[C@@H]3CCC4=CC(=O)CC[C@]4(C)[C@H]3CC[C@]12C.[I-] [Compound 9]
readoutType: log10 of solubility at 90 min
reportedValue: 1.71
--
compound: C/C(=N\OC(=O)C1CCN(C)CC1)[C@H]1CC[C@H]2[C@@H]3CCC4=CC(=O)CC[C@]4(C)[C@H]3CC[C@]12C [Compound 19]
readoutType: log10 of solubility at 90 min
reportedValue: 2.03
--
compound: CC(=O)[C@H]1CC[C@H]2[C@@H]3CCC4=C/C(=N/OC(=O)[C@@H](N)C(C)C)CC[C@]4(C)[C@H]3CC[C@]12C.Cl [Compound 1]
readoutType: log10 of solubility at 90 min
reportedValue: 2.24
--
compound: C/C(=N\OC(=O)CN1CCN(C)CC1)[C@H]1CC[C@H]2[C@@H]3CCC4=CC(=O)CC[C@]4(C)[C@H]3CC[C@]12C [Compound 13]
readoutType: log10 of solubility at 90 min
reportedValue: 2.16
--
compound: C/C(=N\OC(=O)[C@@H]1CCCN1)[C@H]1CC[C@H]2[C@@H]3CCC4=CC(=O)CC[C@]4(C)[C@H]3CC[C@]12C.Cl [Compound 8]
readoutType: log10 of solubility at 90 min
reportedValue: 1.53
--
compound: C/C(=N\OCCN1CCOCC1)[C@H]1CC[C@H]2[C@@H]3CCC4=CC(=O)CC[C@]4(C)[C@H]3CC[C@]12C [Compound 5]
readoutType: log10 of solubility at 90 min
reportedValue: 2.03
--
compound: C/C(=N\OC(=O)[C@@H](N)C(C)C)[C@H]1CC[C@H]2[C@@H]3CCC4=CC(=O)CC[C@]4(C)[C@H]3CC[C@]12C.Cl [Compound 7]
readoutType: log10 of solubility at 90 min
reportedValue: 2.16
--
compound: C/C(=N\OC(=O)c1ccc[n+](C)c1)[C@H]1CC[C@H]2[C@@H]3CCC4=CC(=O)CC[C@]4(C)[C@H]3CC[C@]12C.[I-] [Compound 15]
readoutType: log10 of solubility at 90 min
reportedValue: 2.33
--
compound: C/C(=N\OC(=O)C1CCNCC1)[C@H]1CC[C@H]2[C@@H]3CCC4=CC(=O)CC[C@]4(C)[C@H]3CC[C@]12C.Cl [Compound 18]
readoutType: log10 of solubility at 90 min
reportedValue: 2.39
--
compound: C/C(=N\OC(=O)C[N+](C)(C)C)[C@H]1CC[C@H]2[C@@H]3CCC4=CC(=O)CC[C@]4(C)[C@H]3CC[C@]12C.[I-] [Compound 11]
readoutType: log10 of solubility at 90 min
reportedValue: 1.65
--
compound: C/C(=N\OC(=O)CN(C)C)[C@H]1CC[C@H]2[C@@H]3CCC4=CC(=O)CC[C@]4(C)[C@H]3CC[C@]12C [Compound 10]
readoutType: log10 of solubility at 90 min
reportedValue: 2.23
--
compound: C/C(=N\OC(=O)[C@H]1CCCNC1)[C@H]1CC[C@H]2[C@@H]3CCC4=CC(=O)CC[C@]4(C)[C@H]3CC[C@]12C.Cl [Compound 22]
readoutType: log10 of solubility at 90 min
reportedValue: 2.50
--
compound: C/C(=N\OC(=O)[C@@H]1CCCNC1)[C@H]1CC[C@H]2[C@@H]3CCC4=CC(=O)CC[C@]4(C)[C@H]3CC[C@]12C.Cl [Compound 21]
readoutType: log10 of solubility at 90 min
reportedValue: 2.63
